Values from paper PMC12535377

Molecular target: apCCKR1 (Aplysia californica)
Sequence (A0ABM1AF30 1-261): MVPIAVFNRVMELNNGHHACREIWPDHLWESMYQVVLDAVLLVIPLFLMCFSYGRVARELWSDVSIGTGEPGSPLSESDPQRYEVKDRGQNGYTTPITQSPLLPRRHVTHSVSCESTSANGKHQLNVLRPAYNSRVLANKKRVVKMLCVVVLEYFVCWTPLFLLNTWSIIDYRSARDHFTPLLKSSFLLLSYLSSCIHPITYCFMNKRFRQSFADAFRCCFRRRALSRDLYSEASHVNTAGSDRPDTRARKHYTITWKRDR
Experiment: IP1 accumulation assay, apCCKR1 in CHO-K1 cells
Assay type: cell-based
Details: CHO-K1 cells transfected with receptor and promiscuous Gαq, average of at least three independent experiments, read-out: apCCKR1: EC50
pEC50: −log10 of the molar value.
Measurement name: pEC50

- Substance: "H-SYGDYGIGGGRF-NH2 [apCCK2]"
  Measurement name: "pEC50"
  Endpoint value: "< 5.00"

###

Molecular target: apCCKR2 (Aplysia californica, UniProt A0ABM0ZX06)
Sequence (A0ABM0ZX06 1-377): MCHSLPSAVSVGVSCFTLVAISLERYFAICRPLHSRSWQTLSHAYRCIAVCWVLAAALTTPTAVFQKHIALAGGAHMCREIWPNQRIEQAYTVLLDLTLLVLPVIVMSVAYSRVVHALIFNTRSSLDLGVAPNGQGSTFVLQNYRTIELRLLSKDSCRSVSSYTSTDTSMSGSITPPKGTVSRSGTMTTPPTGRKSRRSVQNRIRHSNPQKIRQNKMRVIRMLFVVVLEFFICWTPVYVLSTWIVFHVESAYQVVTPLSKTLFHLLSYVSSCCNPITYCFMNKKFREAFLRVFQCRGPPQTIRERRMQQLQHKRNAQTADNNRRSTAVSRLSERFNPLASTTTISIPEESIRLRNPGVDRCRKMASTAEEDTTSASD
Test: IP1 accumulation assay, apCCKR2 in CHO-K1 cells
Assay type: cell-based
Conditions: CHO-K1 cells transfected with receptor and promiscuous Gαq, average of at least three independent experiments, read-out: apCCKR2: EC50
Protocol: We tested receptor activation using the IP1 (inositol monophosphate) accumulation assay that measures IP1 generated in the Gαq pathway (see STAR Methods). CHO-K1 cells were cultured in F-12K medium (Gibco, 21127–022) with 10% fetal bovine serum at 37°C in 5% CO2. […] Activation of putative apCCK or related receptor was detected by monitoring IP1 accumulation using IPOne Detection Kit (Cisbio, 62IPAPEB), as previously described.[64],[65],[141],[149],[150] […]
pEC50: −log10 of the molar value.

- Substance: "H-SYGDYGIGGGRF-NH2 [apCCK2]"
  pEC50: "< 5.00"
